Cited source: patent US20240025880A1

system-tested: h P2X3 (Homo sapiens)
Sequence (P56373 whole entry): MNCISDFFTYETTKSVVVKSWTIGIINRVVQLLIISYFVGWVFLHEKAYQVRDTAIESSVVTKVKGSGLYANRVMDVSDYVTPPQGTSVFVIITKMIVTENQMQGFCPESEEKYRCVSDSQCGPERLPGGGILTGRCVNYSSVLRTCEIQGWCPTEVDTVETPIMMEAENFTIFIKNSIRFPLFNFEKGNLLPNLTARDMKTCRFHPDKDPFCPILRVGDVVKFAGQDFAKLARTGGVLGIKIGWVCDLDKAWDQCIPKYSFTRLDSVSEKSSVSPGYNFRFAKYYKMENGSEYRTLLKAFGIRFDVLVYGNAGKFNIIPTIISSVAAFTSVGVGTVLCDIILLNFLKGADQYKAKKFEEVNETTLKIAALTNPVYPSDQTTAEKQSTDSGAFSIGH
method-notes: In vitro electrophysiology assay for P2X3 (automated whole-cell patch clamp, α,β-MeATP agonist)
Assay type: cell-based
condition-notes: Table 2; 800 nM α,β-MeATP, peak current; read-out: h P2X3 (pIC50 range of activity) (converted)
Structures can show the parent of a compound that is named as a salt.
assay-readout: IC50

* Cc1ccc([C@@H](C)Nc2ncnc3c(S(=O)(=O)N4CCC(F)(F)C4)cc(-c4ccc(F)cc4)cc23)nn1 [Example 16] | < 0.316 µM
* Cc1ccc(-c2cc(OCC(F)F)c3ncnc(NCc4ccc(C)nn4)c3c2)nc1 [Example 8] | < 0.316 µM
* Cc1ccc(CNc2ncnc3c(OC4CN(C(=O)OC(C)(C)C)C4)cc(-c4ccc(F)cc4)cc23)nn1 [Example 52] | 0.316 to 3.16 µM
* C[C@@H](Nc1ncnc2c(OCc3cc(O)no3)cc(-c3ccc(F)cc3)cc12)c1cnc(C(F)(F)F)nc1 [Example 38] | < 0.316 µM
* Cc1ccc(CNc2ncnc3c(OCC4(C(F)(F)F)CC4)cc(-c4ccc(F)cc4)cc23)nn1 [Example 51] | 0.316 to 3.16 µM
* C[C@@H](Nc1ncnc2c(OCC3(C(=O)O)CCNCC3)cc(-c3ccc(F)cc3)cc12)c1cnc(C(F)(F)F)nc1 [Example 47, hydrochloride] | 0.316 to 3.16 µM
* COC(=O)C1(NC(=O)COc2cc(-c3ccc(F)cc3)cc3c(NCc4ccc(C)nn4)ncnc23)CC1 [Example 42] | 0.316 to 3.16 µM
